systemUnderTest: Phospho-EGFR (Tyr1068) in H1975 cells (Homo sapiens, UniProt P00533, L858R/T790M)
Sequence (P00533 25-1210 T790M/L858R): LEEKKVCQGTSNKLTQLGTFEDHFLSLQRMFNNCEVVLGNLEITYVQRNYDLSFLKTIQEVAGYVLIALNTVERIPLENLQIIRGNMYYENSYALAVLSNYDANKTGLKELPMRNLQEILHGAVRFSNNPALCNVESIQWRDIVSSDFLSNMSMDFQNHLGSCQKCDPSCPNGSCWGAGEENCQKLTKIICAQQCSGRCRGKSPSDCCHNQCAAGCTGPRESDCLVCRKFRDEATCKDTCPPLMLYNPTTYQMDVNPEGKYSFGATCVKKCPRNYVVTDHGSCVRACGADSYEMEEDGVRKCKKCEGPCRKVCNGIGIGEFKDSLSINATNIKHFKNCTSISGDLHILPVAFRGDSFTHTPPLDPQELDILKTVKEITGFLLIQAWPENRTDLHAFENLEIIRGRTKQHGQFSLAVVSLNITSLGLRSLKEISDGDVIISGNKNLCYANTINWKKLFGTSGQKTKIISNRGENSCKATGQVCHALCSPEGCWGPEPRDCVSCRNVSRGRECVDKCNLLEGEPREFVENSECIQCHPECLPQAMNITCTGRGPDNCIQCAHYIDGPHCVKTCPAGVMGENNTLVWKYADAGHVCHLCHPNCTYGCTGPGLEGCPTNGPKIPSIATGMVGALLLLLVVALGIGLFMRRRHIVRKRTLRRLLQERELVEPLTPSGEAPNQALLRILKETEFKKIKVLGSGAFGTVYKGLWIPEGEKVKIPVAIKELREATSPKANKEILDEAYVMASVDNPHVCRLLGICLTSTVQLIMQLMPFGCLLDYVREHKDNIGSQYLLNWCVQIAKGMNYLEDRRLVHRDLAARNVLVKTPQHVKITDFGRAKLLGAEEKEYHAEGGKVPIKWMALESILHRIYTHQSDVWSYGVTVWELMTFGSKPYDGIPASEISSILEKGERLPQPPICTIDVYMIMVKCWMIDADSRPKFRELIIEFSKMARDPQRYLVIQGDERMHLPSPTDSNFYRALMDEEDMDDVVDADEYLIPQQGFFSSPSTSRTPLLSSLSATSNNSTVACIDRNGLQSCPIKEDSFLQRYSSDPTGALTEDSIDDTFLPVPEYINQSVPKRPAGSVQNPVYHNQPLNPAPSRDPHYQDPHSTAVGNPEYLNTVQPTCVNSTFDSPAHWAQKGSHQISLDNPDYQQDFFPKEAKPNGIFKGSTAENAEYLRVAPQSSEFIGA
runDescription: HTRF pEGFR/total EGFR in H1975 cells
cond: ratio pEGFR/total EGFR, compound 3 hours
pIC50: −log10 of the molar value.
readoutName: pIC50

Consider the following illustrative entries.
C#Cc1cc(=O)n(C)c2nc(Nc3ccc(N4CCN(C)CC4)c(OCCc4ccnn4C)c3)ncc12 [Example 220]: > 6.30
C#Cc1cc(=O)n2c3nc(ncc13)Nc1cccc(c1)OCCC2 [Example 186]: < 5.52

### Prompt Which value of pIC50 has been reported for C#Cc1cc(=O)n([C@H]2CC[C@@H](CO)CC2)c2nc(Nc3ccc(N(C)CCN(C)C)cc3)ncc12 [Example 80] in the records?
### Response > 6.30

### Prompt Need pIC50, item C#Cc1c(-c2ccncc2Cl)c(=O)n(C)c2nc(Nc3ccc(N(C)CCN(C)C)cc3)ncc12 [Example 139]
### Response 5.52 to 6.00

====

// reported pIC50 per item
systemUnderTest: Phospho-EGFR (Tyr1068) in H1975 C797S cells (CRISPR-edited EGFR C797S) (Homo sapiens, UniProt P00533, C797S/L858R/T790M)
Construct: host or cells: H1975 C797S (CRISPR-edited)
Sequence (P00533 25-1210 T790M/C797S/L858R): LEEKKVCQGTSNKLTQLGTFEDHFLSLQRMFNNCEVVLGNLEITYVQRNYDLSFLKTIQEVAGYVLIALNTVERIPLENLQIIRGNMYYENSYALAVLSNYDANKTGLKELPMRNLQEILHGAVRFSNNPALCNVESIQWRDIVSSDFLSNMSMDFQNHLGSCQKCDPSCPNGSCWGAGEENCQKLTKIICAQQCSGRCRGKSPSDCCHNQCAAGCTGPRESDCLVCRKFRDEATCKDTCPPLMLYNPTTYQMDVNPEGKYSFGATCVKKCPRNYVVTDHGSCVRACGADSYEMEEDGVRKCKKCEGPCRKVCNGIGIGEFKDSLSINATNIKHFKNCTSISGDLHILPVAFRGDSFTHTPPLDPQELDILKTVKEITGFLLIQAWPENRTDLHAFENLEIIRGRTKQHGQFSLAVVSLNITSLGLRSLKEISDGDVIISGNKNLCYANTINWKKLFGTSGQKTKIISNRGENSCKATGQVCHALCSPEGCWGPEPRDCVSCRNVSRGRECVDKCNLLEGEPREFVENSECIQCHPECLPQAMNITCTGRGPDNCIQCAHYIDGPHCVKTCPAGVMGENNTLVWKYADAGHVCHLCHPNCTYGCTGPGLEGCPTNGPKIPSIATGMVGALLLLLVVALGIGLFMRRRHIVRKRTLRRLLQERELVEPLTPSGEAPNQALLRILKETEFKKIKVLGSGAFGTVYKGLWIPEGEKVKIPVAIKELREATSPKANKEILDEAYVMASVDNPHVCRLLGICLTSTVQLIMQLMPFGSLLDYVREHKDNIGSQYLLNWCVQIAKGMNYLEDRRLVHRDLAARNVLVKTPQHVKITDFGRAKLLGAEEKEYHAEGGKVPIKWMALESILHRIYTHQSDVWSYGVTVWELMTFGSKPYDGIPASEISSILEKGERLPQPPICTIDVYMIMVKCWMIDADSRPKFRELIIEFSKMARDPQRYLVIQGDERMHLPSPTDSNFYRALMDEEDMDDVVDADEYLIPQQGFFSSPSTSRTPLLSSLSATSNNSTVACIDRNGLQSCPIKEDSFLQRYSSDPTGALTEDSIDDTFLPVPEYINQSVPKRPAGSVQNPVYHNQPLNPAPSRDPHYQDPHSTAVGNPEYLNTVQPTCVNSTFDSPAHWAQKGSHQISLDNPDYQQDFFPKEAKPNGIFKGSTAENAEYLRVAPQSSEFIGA
runDescription: HTRF pEGFR/total EGFR in H1975 C797S cells
Format: cell-based
cond: ratio pEGFR/total EGFR, compound 3 hours
pIC50: −log10 of the molar value.

# annotated cases, reported pIC50 shown
C#Cc1cc(=O)n2c3nc(ncc13)Nc1ccc(N3CCN(CCOC)CC3)c(c1)OCCCC2 [Example 241]: > 6.30
C#Cc1cc(=O)n([C@H]2CC[C@@H](NC(=O)Cc3cn[nH]c3)CC2)c2nc(Nc3ccc(N4CCN(C)CC4)cc3)ncc12 [Example 91]: 5.52 to 6.00
C#Cc1cc(=O)n(C)c2nc(Nc3ccc(OCCN(C)C)cc3)ncc12 [Example 46]: > 6.30
C#Cc1cc(=O)n(-c2cccc(NC(=O)COC(C)=O)c2)c2nc(Nc3ccccc3OC)ncc12 [Example 59]: < 5.52

### Prompt So what's the measured pIC50 for this one? C#Cc1cc(=O)n(C2CCCC2)c2nc(Nc3cccc4c3CCN(C)C4)ncc12 [Example 185]
### Response < 5.52

### Prompt Field request: pIC50 | item: C#Cc1cc(=O)n2c3nc(ncc13)Nc1ccc(N3CCN(C)CC3)c(c1)OCCCCC2C (stereo not drawn) [Example 228]
### Response > 6.30

### Prompt # pIC50 lookup, item C#Cc1cc(=O)n(C2CCCC2)c2nc(Nc3cccc4c3CN(C)C4)ncc12 [Example 184]
### Response < 5.52

### Prompt Bench note: what pIC50 did C=Cc1c(-c2ccccc2Cl)c(=O)n(C)c2nc(Nc3ccc(N4CCN(C)CC4)cc3OC)ncc12 [Example 170] show?
### Response < 5.52

### Prompt Requested read-out: pIC50. Entry: C#Cc1cc(=O)n(-c2ccc(NC(=O)COC(C)=O)cc2)c2nc(Nc3ccccc3OC)ncc12 [Example 64]
### Response < 5.52

====

Reported IC50 by item:
systemUnderTest: Phospho-EGFR (Tyr1068) in H1975 cells (Homo sapiens, UniProt P00533, L858R/T790M)
runDescription: HTRF pEGFR/total EGFR in H1975 cells
cond: ratio pEGFR/total EGFR, compound 3 hours
Description: H1975 cells (ATCC CRL-5908) were plated at 20,000 cells per well in 96 well plates and placed at 37° C. 5% CO2. Once adhered (after 24 h) cells were treated with compounds dissolved in DMSO at a final concentration of 0.1% DMSO in media. Compounds were diluted in media then added to cells for 3 hours in duplicate. […] Cells were lysed on a plate shaker (2000 rpm) for 30 minutes at room temperature. pEGFR expression was monitored using the Cisbio Phospho-EGFR (Tyri068) cellular kit (64EG1PEH). […]

Sample answers from the record:
C#Cc1c(C)c(=O)n(Cc2ncc[nH]2)c2nc(Nc3ccc(N4CCN(C)CC4)cc3)ncc12: > 3 µM
C#Cc1cc(=O)n2c3nc(ncc13)Nc1ccc(N3CCN(C)CC3)c(c1)CNCCC2: > 3 µM
C#Cc1cc(=O)n(-c2ccccc2)c2nc(Nc3ccc(N(C)C(=O)CN(C)C)cc3OC)ncc12: 1 to 3 µM
C#Cc1cc(=O)n(C2CCOC2)c2nc(Nc3ccc(N4CCN(C)CC4)cc3)ncc12 (centres unmarked): 1 to 3 µM
C#Cc1cc(=O)n(C2CCN(C)C2)c2nc(Nc3ccc(N4CCN(C)CC4)cc3)ncc12 (centres unmarked): > 3 µM
C#Cc1cc(=O)n(C(C)C)c2nc(Nc3ccc(N4CCN(C)CC4)cc3)ncc12: < 0.5 µM
C=Cc1cc(=O)n(-c2cccc(OC)c2)c2nc(Nc3ccccc3OC)ncc12: > 3 µM

### Prompt Which IC50 value belongs to C#Cc1cc(=O)n(-c2ccc(NC(=O)C3CC3)cc2)c2nc(Nc3ccccc3OC)ncc12 ?
### Response > 3 µM

The measured values listed here are drawn from patent US20260137703A1.
